Item-by-item account of GI50
molecular target: Ba/F3 De119/T790M/C797S EGFR triple mutant cell line (Homo sapiens, UniProt P00533, T790M/C797S, cells depend on it, form not given); assay: Cell proliferation inhibition experiment (CellTiter-Glo), Ba/F3 De119/T790M/C797S; assay type: cell-based; details: Ba/F3 Del19/T790M/C797S EGFR triple mutant cells, 72 hours, Cell Titer-Glo; read-out: Ba/F3 (Del19/T790M/C797S) IC50
Sequence (P00533 with tags, fused parts or gaps DEL746-750/T790M/C797S, form open): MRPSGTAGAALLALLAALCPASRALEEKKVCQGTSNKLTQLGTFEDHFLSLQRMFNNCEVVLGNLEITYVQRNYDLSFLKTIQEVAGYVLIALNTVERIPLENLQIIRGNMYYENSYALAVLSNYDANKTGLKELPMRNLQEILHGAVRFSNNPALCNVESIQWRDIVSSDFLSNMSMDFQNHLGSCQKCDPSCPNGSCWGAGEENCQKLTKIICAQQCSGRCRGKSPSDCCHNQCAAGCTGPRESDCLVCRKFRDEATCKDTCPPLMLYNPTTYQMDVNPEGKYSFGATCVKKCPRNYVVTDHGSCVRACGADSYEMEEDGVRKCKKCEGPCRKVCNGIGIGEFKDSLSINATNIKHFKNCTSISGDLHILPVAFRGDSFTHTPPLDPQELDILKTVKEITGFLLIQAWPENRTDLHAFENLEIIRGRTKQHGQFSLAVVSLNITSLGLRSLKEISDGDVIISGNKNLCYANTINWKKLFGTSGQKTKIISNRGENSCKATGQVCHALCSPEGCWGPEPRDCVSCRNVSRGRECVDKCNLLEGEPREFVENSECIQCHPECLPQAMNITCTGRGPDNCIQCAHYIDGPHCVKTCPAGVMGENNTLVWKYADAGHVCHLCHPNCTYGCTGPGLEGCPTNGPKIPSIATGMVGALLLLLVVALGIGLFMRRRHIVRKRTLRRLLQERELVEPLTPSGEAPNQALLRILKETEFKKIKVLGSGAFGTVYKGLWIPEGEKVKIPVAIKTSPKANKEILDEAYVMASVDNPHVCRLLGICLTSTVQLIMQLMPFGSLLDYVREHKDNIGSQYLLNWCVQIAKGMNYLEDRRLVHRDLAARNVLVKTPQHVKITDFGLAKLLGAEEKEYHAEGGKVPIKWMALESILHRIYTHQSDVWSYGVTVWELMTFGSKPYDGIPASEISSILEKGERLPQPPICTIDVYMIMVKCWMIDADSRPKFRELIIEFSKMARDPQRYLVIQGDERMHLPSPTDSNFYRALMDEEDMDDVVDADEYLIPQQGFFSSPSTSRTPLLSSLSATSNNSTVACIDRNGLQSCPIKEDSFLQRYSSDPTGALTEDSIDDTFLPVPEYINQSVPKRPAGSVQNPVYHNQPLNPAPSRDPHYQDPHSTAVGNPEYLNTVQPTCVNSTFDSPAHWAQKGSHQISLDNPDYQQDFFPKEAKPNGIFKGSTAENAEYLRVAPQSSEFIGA

# compound, GI50 / nM
measured = [
    ("COc1cc(NC(C)C(F)(F)F)c(-c2cnn(C)c2)cc1Nc1ncc(Br)c(Nc2ccc3nccnc3c2P(C)(C)=O)n1 (stereo not drawn) [compound 154]", 5.26),
    ("COc1cc(N2CCC(OC)CC2)c(-c2cnn(C)c2)cc1Nc1ncc(Br)c(Nc2ccc3nccnc3c2P(C)(C)=O)n1 [compound 26]", 1.22),
    ("[2H]C([2H])([2H])N(c1cc(OC)c(Nc2ncc(C)c(Nc3ccc4nccnc4c3P(C)(C)=O)n2)cc1-c1cnn(C)c1)C([2H])([2H])[2H] [compound 143]", 3.23),
]
